Reference source: patent US20250222125A1

target: cyno FGFR2b protein (recombinant) (cyno, UniProt A0A2K5TL97 22-380); experiment: SPR, antibody captured by anti-human Fc, cyno FGFR2b
pKd: −log10 of the molar value.
Measured pKd, listed per entry for reference.
metric: pKd

{"binder": "BGAm1371 (antibody, V domains shown, assays detect or capture it with anti-human IgG; also called parental mouse clone; murine parental antibody of BGAh9179) VH: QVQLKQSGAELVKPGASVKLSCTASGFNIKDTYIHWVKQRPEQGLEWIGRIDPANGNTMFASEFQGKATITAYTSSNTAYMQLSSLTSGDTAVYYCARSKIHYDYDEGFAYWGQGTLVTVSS VL: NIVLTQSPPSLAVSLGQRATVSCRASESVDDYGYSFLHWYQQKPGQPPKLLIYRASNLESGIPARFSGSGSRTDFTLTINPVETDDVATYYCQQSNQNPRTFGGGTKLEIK", "numeric readout": 7.80}
{"binder": "BGAh9179 (antibody, human IgG1, kappa, V domains shown, also called BGA9179; humanized antibody developed from BGAm1371) VH: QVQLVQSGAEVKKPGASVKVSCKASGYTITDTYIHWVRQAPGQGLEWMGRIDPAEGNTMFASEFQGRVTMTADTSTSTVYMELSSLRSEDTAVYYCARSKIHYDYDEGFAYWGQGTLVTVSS VL: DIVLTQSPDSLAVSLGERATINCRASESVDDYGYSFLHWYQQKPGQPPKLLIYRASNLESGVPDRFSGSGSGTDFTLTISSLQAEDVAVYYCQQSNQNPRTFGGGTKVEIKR", "numeric readout": 7.69}
{"binder": "BGAm1823 (antibody, V domains shown, assays detect or capture it with anti-human IgG; also called murine parental antibody of BGAh9239) VH: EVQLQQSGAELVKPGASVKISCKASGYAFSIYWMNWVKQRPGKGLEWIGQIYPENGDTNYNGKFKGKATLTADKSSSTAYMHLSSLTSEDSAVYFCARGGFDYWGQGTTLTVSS VL: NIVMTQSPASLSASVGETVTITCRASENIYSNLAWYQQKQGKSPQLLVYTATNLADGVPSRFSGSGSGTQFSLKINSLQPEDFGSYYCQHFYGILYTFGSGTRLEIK", "numeric readout": 7.61}
{"binder": "BGAh9239 (antibody, human IgG1, kappa, V domains shown, also called humanized antibody developed from BGAm1823) VH: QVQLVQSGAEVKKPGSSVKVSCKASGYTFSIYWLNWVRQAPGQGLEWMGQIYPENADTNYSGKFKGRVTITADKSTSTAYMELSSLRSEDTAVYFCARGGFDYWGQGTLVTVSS VL: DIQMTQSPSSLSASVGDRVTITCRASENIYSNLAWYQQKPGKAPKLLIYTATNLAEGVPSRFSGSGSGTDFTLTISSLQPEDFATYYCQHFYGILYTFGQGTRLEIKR", "numeric readout": 7.47}
